test system: OVCAR-3 ovarian; test: NCI tumour cell line growth inhibition, 48 h
For each entry below, report its TGI value.

Previously resolved entries follow.
1) O=C1CCC2C(O)c3cc4c(cc3C(c3ccc5c(c3)OCO5)N12)OCO4 (stereo unspecified): > 100 µM
2) COC(=O)N/N=C(\Cc1ccccc1)CN(C)C: > 100 µM
3) CNC1=C(C)C(=O)C(=O)C([C@H](C)CCC=C(C)C)=C1O: > 100 µM
4) C[C@]12CCC(=O)C=C1CC[C@@H]1[C@@H]2CC[C@]2(C)C(=O)NC(=O)C[C@@H]12: > 100 µM
5) COc1ccc(-c2c(C#N)c(N)n(C3OCC(OC(C)=O)C(OC(C)=O)C3OC(C)=O)c(=S)c2C#N)cc1 (stereo unspecified): > 100 µM

Then there is this compound:
Determine its reported TGI: C/C(CC(=O)Nc1ccc([N+](=O)[O-])cc1)=N\NC(N)=O
> 100 µM

* * *

tested on: RPMI-8226 leukemia; experiment: NCI tumour cell line growth inhibition, 48 h
property measured: TGI

Previously resolved entries follow.
1. CS(=O)(=O)c1nc(-c2cc3c(c(S(C)(=O)=O)n2)CCC3)cc2c1CCCCC2: > 100 µM
2. Cc1cc(=O)[nH]c(-n2[nH]c(C)c(CCO)c2=O)n1: > 100 µM

Parameter requested: TGI. Apply to each item below.
1. O=C(O)C(SC(=S)c1ccc(C(=S)SC(C(=O)O)c2ccccc2)cc1)c1ccccc1 (stereo unspecified)
2. CNc1ncnc2c1ncn2C1C=CC(COS(N)(=O)=O)C1 (stereo unspecified)
3. C[C@]12C=CC(=O)C=C1CC[C@@H]1[C@@H]2CC[C@]2(C)OC(=O)CC[C@@H]12
4. CC(=O)OCC1OC(n2cnc(C(N)=S)c2N)C(OC(C)=O)C1OC(C)=O (stereo unspecified)

> 100 µM
> 100 µM
> 500 µM
> 100 µM

* * *

test system: NCI-H226 lung; test: NCI tumour cell line growth inhibition, 48 h
property measured: TGI

1. COC(=O)[C@@H]1CN(C(C)=O)C(=O)N1: > 100 µM
2. COc1cc([N+](=O)[O-])c(OC)cc1-c1nc2sc(Cl)cn2c1/C(N)=N/C(=N)N: 53.9 µM
3. COc1ccc(-c2nc(-c3nc4ccc(OC)cc4[nH]3)c3ccccn23)cc1: > 100 µM
4. C/C(=N\NS(=O)(=O)c1ccc(C)cc1)C(CN1CCCCC1)C(c1ccccc1)c1c(O)c2ccccc2oc1=O (stereo unspecified): > 100 µM
5. CCOc1cc(NC(C)=O)ccc1C(=O)NN1C(=O)C(Cl)C1c1ccccc1 (stereo unspecified): 46.3 µM

Then there is this compound:
State measured TGI of the compound O=C1NC2ON=C(c3ccccc3)C2C2ON=C(c3ccccc3)N12 (stereo unspecified) with NCI-H226 lung.
> 100 µM

* * *

For each entry below, report its TGI value.
tested on: 786-0 renal; assay: NCI tumour cell line growth inhibition, 48 h

Previously resolved entries follow.
1) C=CCNC(=O)NC(=O)CSC1=NNC2(C(=O)N1)c1ccccc1-c1ccccc12: > 10 µM
2) CC(=O)OCC1OC(n2cnc(C(N)=S)c2N)C(OC(C)=O)C1OC(C)=O (configuration not stated): > 100 µM
3) O=C([CH-]C(=O)c1ccccc1)c1ccccc1.O=C([CH-]C(=O)c1ccccc1)c1ccccc1.[La+3].[OH-].[OH3+]: 65.1 µM
4) NN(CC(=O)O)CC(=O)O: > 100 µM
5) COC(=O)C(=O)C(C(=O)C(=O)Nc1ccc(F)cc1)c1nc2ccc([N+](=O)[O-])cc2[nH]c1=O (configuration not stated): > 100 µM

Parameter requested: TGI. Apply to each item below.
1. CS(=O)(=O)c1nc(-c2cc3c(c(S(C)(=O)=O)n2)CCC3)cc2c1CCCCC2
2. CN[C@@H](C)C(=O)N[C@H](C(=O)N1CCC[C@H]1C(=O)Nc1snnc1-c1ccccc1)C1CCCCC1
3. CC(C)(C)n1cc(-c2ccnc(NCCCNS(=O)(=O)c3ccc(C(F)(F)F)cc3)c2)c(-c2cccc(O)c2)n1
4. COc1ccc(/C(COc2ccc3c(=O)cc(-c4ccccc4)oc3c2)=N\O)cc1
5. O=C(O)CNC(=O)c1ccc(-c2ccccc2)cc1
6. O=C(ON=C1c2ccccc2C(Br)C(Br)c2ccccc21)c1cc([N+](=O)[O-])cc([N+](=O)[O-])c1 (configuration not stated)

1. > 100 µM
2. > 100 µM
3. 3.38 µM
4. > 50 µM
5. > 100 µM
6. 28.7 µM
